Tested on: passive cutaneous reaction mediated by Ig G antibodies
Experimental protocol: Passive cutaneous anaphylaxis in the rat (PCR), Ig G mediated, inhibition after oral administration
Assay type: in vivo
Applied conditions: 1 mg/kg, male Wistar rats
Metric name: inhibition in vivo at 1 mg/kg (%)
Hi! Could you send only the number? It should be in %, unit omitted.

See these solved cases before continuing.
1) CCOC(=O)c1cnc2n(c1=O)-c1ccccc1N(C(=O)Nc1ccccc1)C2 : 17.6
2) CCOC(=O)c1cnc2n(c1=O)-c1ccccc1NC2 : 23
3) CCOC(=O)c1cnc2n(c1=O)-c1ccccc1N(C(=O)C(C)C)C2 : 16
4) CCOC(=O)c1cnc2n(c1=O)-c1ccccc1N(C(=O)c1ccccc1)C2 : 23
5) CCOC(=O)c1cnc2n(c1=O)-c1ccccc1N(C(=O)C1CC1)C2 : 23

Turning now to a further molecule:
// "CCOC(=O)c1cnc2n(c1=O)-c1ccccc1N(C)C2" : inhibition in vivo at 1 mg/kg value = 7.7
